# Experiment: physchem
Observation type: solubility (mg/mL)
One number for each entry, in mg/mL.

solubility measured on CN1CCCC1c1cccnc1 (stereo not shown) = 50
